The measurements presented in this section are drawn from PubChem BioAssay (NCATS).

protocol: qHTS of pediatric cancer cell lines to identify multiple opportunities for drug repurposing: Primary screen for Saos-2 cells (AID 1347097); also: nearly all actives have a fitted effect of over 40% in size
condition: Saos-2 viability, CellTiter-Glo ATP luminescence, 48 h; series mostly up to 46 µM
Records with an inconclusive call do not appear. Activity calls are given as the source filed them. Calls follow the shape of the dose curve; as a rule, active = well fitted cell-killing curve with a large enough effect; inconclusive = small, poorly fitted or top-dose-only effect; inactive = no such curve, though single readings can be large or run the other way.
Outcomes: active, inactive

molecule: CNCC(O)c1ccc(O)cc1 (stereo not given)
assigned label: inactive

molecule: CC(C)=CC1C(C(=O)OCc2cccc(Oc3ccccc3)c2)C1(C)C (stereo not given)
assigned label: inactive

molecule: COC[C@H]1OC(=O)c2coc3c2[C@@]1(C)C1=C(C3=O)C2CCC(=O)[C@@]2(C)C[C@H]1OC(C)=O (stereo not given in full)
assigned label: active

molecule: N[C@@H](Cc1ccc(Oc2cc(I)c(O)c(I)c2)c(I)c1)C(=O)O
assigned label: inactive

molecule: COc1ccc2c(c1OC)CN1CCc3cc4c(cc3C1C2)OCO4 (stereo not given)
assigned label: inactive

molecule: CNC(=O)c1ccc(N2C(=S)N(c3ccc(C#N)c(C(F)(F)F)c3)C(=O)C23CCC3)cc1F
assigned label: inactive

molecule: CCC1(C2=NCCN2)Cc2ccccc2O1 (stereo not given)
assigned label: inactive

molecule: CC1=C2C[C@@H]3[C@@H](CC=C4C[C@@H](O)CC[C@@]43C)[C@@H]2CC[C@]12O[C@H]1C[C@H](C)CN[C@H]1[C@H]2C
assigned label: inactive

molecule: NCCc1cc(O)c(O)cc1O
assigned label: inactive

molecule: CC(C)(N)Cc1ccc(Cl)cc1
assigned label: inactive

====

protocol: Natriuretic polypeptide receptor (hNpr1) antagonism - Pilot counterscreen GloSensor control cell line (AID 1347045)
condition: HEK293 cGMP GloSensor cells, SNP-stimulated luminescence, 20 min; series mostly up to 38.3 µM
Inconclusive results are not listed. Activity calls are given as the source filed them. Calls come from the whole dose curve.
Outcomes: Yes for active, No for inactive

compound: CCCN1CCC[C@@H]2Cc3[nH]ncc3C[C@H]21
assigned label: No
--
compound: O=C1NCN(c2ccccc2)C12CCN(CC1COc3ccccc3O1)CC2 (stereo not given)
assigned label: No
--
compound: c1ccc(C2CC2)c(OCC2=NCCN2)c1
assigned label: No
--
compound: NN=C(N)N
assigned label: No
--
compound: CC(=O)[C@H]1CC[C@H]2[C@@H]3CC[C@H]4C[C@](C)(O)CC[C@]4(C)[C@H]3CC[C@]12C
assigned label: No
--
compound: Cc1ncc(CNC(=O)N(CCCl)N=O)c(N)n1
assigned label: No
--
compound: CN1C[C@H](CNC(=O)OCc2ccccc2)C[C@@H]2c3cccc4c3c(cn4C)C[C@H]21
assigned label: No
--
compound: C=C(C)[C@H]1Cc2c(ccc3c2O[C@@H]2COc4cc(OC)c(OC)cc4[C@@H]2C3=O)O1
assigned label: Yes
--
compound: C[C@@H]1O[C@@H](O[C@H]2C[C@@H](O)[C@]3(CO)[C@H]4[C@H](O)C[C@]5(C)[C@@H](C6=CC(=O)OC6)CC[C@]5(O)[C@@H]4CC[C@]3(O)C2)[C@H](O)[C@H](O)[C@H]1O
assigned label: No
--
compound: NCC(CC(=O)O)c1ccc(Cl)cc1 (stereo not given)
assigned label: No

====

Tested on: CP269
protocol: qHTS profiling for inhibitors of Plasmodium falciparum proliferation (AID 504749); also: nearly all actives have a fitted effect of over 60% in size
condition: P. falciparum in erythrocytes, SYBR Green DNA, 72 h; series mostly up to 28.7 µM
Records with an inconclusive call do not appear. The source made the active and inactive calls. The call rests on the fitted dose curve; in most records, active means well fitted inhibition curve with a large enough effect; inconclusive means small, poorly fitted or top-dose-only effect; inactive means flat fitted curve, though single readings scatter.
Outcomes: t for active, f for inactive

smiles notation: OCCOc1ccccc1
experimental system: CP269
assigned label: f
//
smiles notation: CC(C)(N)Cc1ccc(Cl)cc1
experimental system: CP269
assigned label: f
//
smiles notation: c1ccc(C2CC2)c(OCC2=NCCN2)c1
experimental system: CP269
assigned label: f
//
smiles notation: Cc1ncc(CNC(=O)N(CCCl)N=O)c(N)n1
experimental system: CP269
assigned label: f
//
smiles notation: NCCc1cc(O)c(O)cc1O
experimental system: CP269
assigned label: f
//
smiles notation: Fc1ccc(C(OCCN2CCN(CCCc3ccccc3)CC2)c2ccc(F)cc2)cc1
experimental system: CP269
assigned label: t
//
smiles notation: CC[N+](CC)(CC)CC
experimental system: CP269
assigned label: f
//
smiles notation: Nc1ccncc1
experimental system: CP269
assigned label: f

====

protocol: HepG2 cells viability qHTS for Zika virus inhibitors (AID 1347168)
condition: Zika counter-screen; series mostly up to 45.9 µM
Records with an inconclusive call do not appear. Calls of active or inactive are those of the source. Calls come from the whole dose curve; as a rule, active = well fitted cell-killing curve with a large enough effect; inconclusive = small, poorly fitted or top-dose-only effect; inactive = flat fitted curve, though single readings scatter.

smiles notation: CCN(C(C)=O)c1cccc(-c2ccnc3c(C#N)cnn23)c1
outcome: inactive
--
smiles notation: N[C@@H](Cc1ccc(Oc2cc(I)c(O)c(I)c2)c(I)c1)C(=O)O
outcome: inactive
--
smiles notation: O=C(O)C(=O)c1cn(Cc2ccccc2)c2ccc(-c3ccc(OC(F)(F)F)cc3)cc12
outcome: inactive
--
smiles notation: Cc1ccc(-c2nc3ccc(C)cn3c2CC(=O)N(C)C)cc1
outcome: inactive
--
smiles notation: CN1C[C@H](CNC(=O)OCc2ccccc2)C[C@@H]2c3cccc4c3c(cn4C)C[C@H]21
outcome: inactive

====

condition: Ebola virus entry cell assay, ratio channel
Activity calls are given as the source filed them.
Outcomes: y for active, n for inactive

compound: Cc1cc2c(s1)Nc1ccccc1N=C2N1CCN(C)CC1
assigned label: n

compound: Nc1nc(=S)c2[nH]cnc2[nH]1
assigned label: n

compound: COc1ccc(OC)c(C(O)CNC(=O)CN)c1 (stereo not drawn)
assigned label: n

compound: C=C[C@H]1CN2CC[C@H]1C[C@@H]2[C@@H](O)c1ccnc2ccc(OC)cc12
assigned label: n

compound: COC(=O)[C@@H]1CC2=CC(=O)CC[C@]2(C)[C@@]23O[C@@H]2C[C@@]2(C)[C@@H](CC[C@@]24CCC(=O)O4)[C@H]13
assigned label: n

compound: CC[C@]1(O)C[C@H]2CN(CCc3c([nH]c4ccccc34)[C@@](C(=O)OC)(c3cc4c(cc3OC)N(C=O)[C@H]3[C@@](O)(C(=O)OC)[C@H](OC(C)=O)[C@]5(CC)C=CCN6CC[C@]43[C@@H]65)C2)C1
assigned label: y

compound: CCN1CCN(C(=O)N[C@@H](C(=O)N[C@@H]2C(=O)N3C(C(=O)O)=C(CSc4nnnn4C)CS[C@H]23)c2ccc(O)cc2)C(=O)C1=O
assigned label: n

compound: C[C@]12CC[C@@H]3c4ccc(O)cc4C[C@@H](CCCCCCCCCS(=O)CCCC(F)(F)C(F)(F)F)[C@H]3[C@@H]1CC[C@@H]2O (stereo partly drawn)
assigned label: y

====

protocol: Drug repurposing screens with cells derived from glioblastoma tumor samples (AID 1345199); also: nearly all actives have a fitted effect of over 40% in size
condition: GBM patient neurospheres viability, ATP luminescence, 48 h; at 45.9 µM (top of the series); tumour line B
Results filed as inconclusive are left out.
Output YES for records whose activity, negative = cell killing is lower than -20%, NO for records at or above -20%.

compound: Cc1cccc(C)c1NC1=NCCCS1
assigned label: NO

compound: COc1ccc(C(CN(C)C)C2(O)CCCCC2)cc1 (stereo not given)
assigned label: NO

compound: CC(=O)Nc1cc([As](=O)(O)O)ccc1O
assigned label: YES

compound: C[C@]12C/C(=C/O)C(=O)C[C@@H]1CC[C@@H]1[C@@H]2CC[C@@]2(C)[C@H]1CC[C@]2(C)O
assigned label: NO

compound: O=c1[nH]c2ccccc2n1CCCN1CCC(n2c(=O)[nH]c3cc(Cl)ccc32)CC1
assigned label: YES

compound: CC(C)=CC1C(C(=O)OCc2cccc(Oc3ccccc3)c2)C1(C)C (stereo not given)
assigned label: NO

compound: NN=C(N)N
assigned label: NO

compound: NCC(CC(=O)O)c1ccc(Cl)cc1 (stereo not given)
assigned label: NO

compound: Oc1ccc(Cl)cc1Cc1ccccc1
assigned label: YES

compound: CCCC1CCCCN1 (stereo not given)
assigned label: YES

compound: CN(C)CCc1ccc(O)cc1
assigned label: NO

compound: CC(C)(C)NCC(O)c1cc(Cl)c(N)c(Cl)c1 (stereo not given)
assigned label: NO

compound: CC(C)=CCOc1c2occc2cc2ccc(=O)oc12
assigned label: NO

compound: N[C@@H](Cc1ccc(Oc2cc(I)c(O)c(I)c2)c(I)c1)C(=O)O
assigned label: NO

compound: CCOP(=S)(OCC)Oc1cc(C)nc(C(C)C)n1
assigned label: NO

compound: CC(C)(N)Cc1ccc(Cl)cc1
assigned label: NO

compound: CCN(CC)C(=O)N[C@@H]1C=C2c3cccc4[nH]cc(c34)C[C@@H]2N(C)C1
assigned label: NO

compound: CCCN1CCC[C@@H]2Cc3nc(N)ncc3C[C@H]21
assigned label: NO

compound: CC(C)NCC(O)c1ccccc1Cl (stereo not given)
assigned label: NO

compound: NP(N)(=O)NC(=O)c1ccc(F)cc1
assigned label: NO

compound: CC(=O)[C@H]1CC[C@H]2[C@@H]3CC[C@H]4C[C@](C)(O)CC[C@]4(C)[C@H]3CC[C@]12C
assigned label: YES

compound: C#CCN(C)[C@H](C)Cc1ccccc1
assigned label: NO

compound: CN1CCN(C(=O)O[C@H]2c3nccnc3C(=O)N2c2ccc(Cl)cn2)CC1
assigned label: NO

compound: CN1C(=S)CN=C(c2ccccc2)c2cc(Cl)ccc21
assigned label: YES
